Target: purified human von Willebrand factor (vWF) (human, UniProt P04275 764-2813)
Assay: cell-based or functional assay
The following binders are listed with their measured EC50 (nM), platelet agglutination assay values.
Please make sure the unit comes right after the number.

binder	readout_type	result
humanized NMC-4 variant H14, L9 (IgG1) (antibody, V domains shown) VH: QVQLQESGPGLVKPSETLSLTCTVSGGSISDYGWDWIRQPPGKGLEWIGMIWGDGSTDYNPSLKSRVTISVDTSKNQFSLKLSSVTAADTAVYYCARDPADYGNYDYALDYWGQGTLVTVSS VL: DIQMTQSPSSLSASVGDRVTITCSASQDINKYLNWYQQKPGKAPKLLIYYTSSLHSGVPSRFSGSGSGTDFTLTISSLQPEDFATYYCQQYEKLPWTFGQGTKVEIK	EC50 (nM), platelet agglutination assay	0.13 nM

In the following, a different binder is considered.
Which measured EC50 (nM), platelet agglutination assay value corresponds to humanized NMC-4 variant H14, L11 (IgG1) (antibody, V domains shown) VH: QVQLQESGPGLVKPSETLSLTCTVSGGSISDYGWDWIRQPPGKGLEWIGMIWGDGSTDYNPSLKSRVTISVDTSKNQFSLKLSSVTAADTAVYYCARDPADYGNYDYALDYWGQGTLVTVSS VL: DIQMTQSPSSLSASVGDRVTITCQASQDISNYLNWYQQKPGKAPKLLIYDASNLETGVPSRFSGSGSGTDFTLTFSSLQPEDFATYYCQQYEKLPWTFGQGTKVEIK ?
1.63 nM
